% Blocking values, listed per item
Tgt: T1, human chemokine (C-C motif) receptor 8 (CCR8) (human, UniProt P51685 1-355)
T1 construct: also called hCCR8
Assay method text: flow cytometry blocking, human PBMC, CD3+ gate; competitor PE-AB10
# value in %; strip the unit string

The following binders have reported results that may help.
anti-CCR8 monoclonal antibody AB11 (antibody, V domains shown, Hybridoma monoclonal; also called antibody 11; clone 11) VH: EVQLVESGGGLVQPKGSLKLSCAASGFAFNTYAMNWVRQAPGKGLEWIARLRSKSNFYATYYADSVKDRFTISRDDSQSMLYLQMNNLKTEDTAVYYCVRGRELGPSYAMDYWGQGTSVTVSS VL: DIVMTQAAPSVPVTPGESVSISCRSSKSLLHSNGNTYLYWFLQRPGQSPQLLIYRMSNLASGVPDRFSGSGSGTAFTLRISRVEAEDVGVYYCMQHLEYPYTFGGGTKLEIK :: 96.5
anti-CCR8 monoclonal antibody AB6 (antibody, V domains shown, also called antibody 6; clone 6) VH: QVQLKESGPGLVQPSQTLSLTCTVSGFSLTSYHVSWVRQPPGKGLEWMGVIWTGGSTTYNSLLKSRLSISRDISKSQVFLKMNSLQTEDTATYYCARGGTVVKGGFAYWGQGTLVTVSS VL: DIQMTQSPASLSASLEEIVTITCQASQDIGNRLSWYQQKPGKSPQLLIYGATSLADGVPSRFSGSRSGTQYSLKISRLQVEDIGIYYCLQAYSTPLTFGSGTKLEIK :: 6.97
anti-CCR8 monoclonal antibody AB13 (antibody, V domains shown, Hybridoma monoclonal; also called antibody 13; clone 13) VH: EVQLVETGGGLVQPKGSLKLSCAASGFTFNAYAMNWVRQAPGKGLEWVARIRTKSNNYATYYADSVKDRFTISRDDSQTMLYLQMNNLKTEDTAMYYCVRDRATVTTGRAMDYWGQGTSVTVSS VL: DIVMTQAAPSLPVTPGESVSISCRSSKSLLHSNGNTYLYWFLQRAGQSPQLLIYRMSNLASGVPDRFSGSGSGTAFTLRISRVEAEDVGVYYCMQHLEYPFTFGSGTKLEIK :: -2.65
anti-CCR8 monoclonal antibody AB8 (antibody, V domains shown, Hybridoma monoclonal; also called antibody 8; clone 8) VH: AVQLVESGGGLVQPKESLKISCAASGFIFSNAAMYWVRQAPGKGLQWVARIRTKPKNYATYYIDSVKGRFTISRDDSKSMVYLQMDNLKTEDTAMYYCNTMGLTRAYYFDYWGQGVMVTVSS VL: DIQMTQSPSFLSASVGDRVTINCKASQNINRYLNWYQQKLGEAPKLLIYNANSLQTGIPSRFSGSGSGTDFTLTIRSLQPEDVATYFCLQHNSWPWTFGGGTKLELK :: 89.2

Turning now to a further record.
Notebook: anti-CCR8 monoclonal antibody AB7 (antibody, V domains shown, Hybridoma monoclonal; also called antibody 7; clone 7) VH: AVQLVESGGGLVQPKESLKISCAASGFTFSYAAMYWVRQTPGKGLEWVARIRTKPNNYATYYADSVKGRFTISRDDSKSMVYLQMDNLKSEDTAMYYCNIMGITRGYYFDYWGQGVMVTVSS VL: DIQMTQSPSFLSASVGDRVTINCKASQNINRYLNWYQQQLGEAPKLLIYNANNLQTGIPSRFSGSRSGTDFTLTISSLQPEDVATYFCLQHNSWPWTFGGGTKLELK , % Blocking read as 91.2
